TARGET UNDER TEST: human vasopressin V1a receptor (Homo sapiens, UniProt P37288)
Sequence (P37288 whole entry): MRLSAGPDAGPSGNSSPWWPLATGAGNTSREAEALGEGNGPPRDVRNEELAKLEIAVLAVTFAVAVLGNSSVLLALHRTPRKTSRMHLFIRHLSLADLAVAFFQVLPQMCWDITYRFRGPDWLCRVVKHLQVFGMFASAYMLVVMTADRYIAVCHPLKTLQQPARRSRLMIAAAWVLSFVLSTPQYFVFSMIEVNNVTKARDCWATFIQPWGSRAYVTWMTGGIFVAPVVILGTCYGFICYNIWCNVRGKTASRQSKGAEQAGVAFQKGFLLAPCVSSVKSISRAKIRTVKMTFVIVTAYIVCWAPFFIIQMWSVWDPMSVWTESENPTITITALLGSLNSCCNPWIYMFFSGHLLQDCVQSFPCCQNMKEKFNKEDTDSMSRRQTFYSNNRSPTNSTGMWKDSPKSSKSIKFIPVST
TEST SUMMARY: Human vasopressin V1a receptor binding assay
CONDITION NOTES: 1321N1 cell membranes, [3H]vasopressin; read-out: Ki (nM) on hV1a cell line
TEST READOUT: log10 of Ki (log10 of the value in nM)
Values are log10 of Ki in nM.

Below, each entry is followed by its recorded log10 of Ki result.
- COMPOUND: "CN(C)[C@H]1CC[C@H](c2nnc3n2-c2ccc(Cl)cc2CC2(C3)OCCO2)CC1"
  log10 of Ki: 0.72
- COMPOUND: "CO[C@]1(C)CC[C@@H](c2nnc3n2-c2ccc(Cl)cc2CC2(C3)OCCO2)CC1"
  log10 of Ki: -0.70
- COMPOUND: "O=C1Cc2cc(Br)ccc2-n2c(nnc2[C@H]2CC[C@H](C(=O)N3CCCCC3)CC2)C1"
  log10 of Ki: 0.40
- COMPOUND: "COC1Cc2cc(Cl)ccc2-n2c(nnc2[C@@H]2CCN(Cc3cccnc3)C2)C1 (stereo partly shown)"
  log10 of Ki: 0.70
- COMPOUND: "COC1Cc2cc(Cl)ccc2-n2c(nnc2C2CCN(C(=O)c3ccccn3)C2)C1 (stereo not shown)"
  log10 of Ki: 1.00

Would you kindly share the measured log10 of Ki for CC(C)N(C)C1Cc2cc(Cl)ccc2-n2c(nnc2[C@H]2CC[C@H](Oc3ccccn3)CC2)C1 (stereo partly shown) ?
-0.70

Input CC(C)NC1Cc2cc(Cl)ccc2-n2c(nnc2[C@H]2CC[C@H](Oc3ccccn3)CC2)C1 (stereo partly shown)
0.00

Input COC1Cc2cc(Cl)ccc2-n2c(nnc2[C@H]2CC[C@H](C(=O)N3CCN(C)CC3)CC2)C1 (stereo partly shown)
0.79

Input CC(C)C(=O)NC1Cc2cc(Cl)ccc2-n2c(nnc2C2CCN(c3ccccn3)CC2)C1 (stereo not shown)
1.85

Input CO[C@]1(C)CC[C@H](c2nnc3n2-c2ccc(Cl)cc2CC2(C3)OCCCO2)CC1
-0.70

Input CC(C)(C)OC(=O)NC1Cc2cc(Cl)ccc2-n2c(nnc2[C@H]2CC[C@H](N3CCOCC3)CC2)C1 (stereo partly shown)
1.66

Input O=C(N[C@H]1Cc2cc(Cl)ccc2-n2c(nnc2[C@H]2CC[C@H](Oc3ccccn3)CC2)C1)c1ccc(F)cc1
1.76

Input CC(C)(C)OC(=O)NC1Cc2cc(Cl)ccc2-n2c(nnc2[C@H]2CC[C@H](Oc3ccccn3)CC2)C1 (stereo partly shown)
0.58

Input CCC(C)N[C@H]1Cc2cc(Cl)ccc2-n2c(nnc2[C@H]2CC[C@H](Oc3ccccn3)CC2)C1 (stereo partly shown)
0.30

Input CC1(C(=O)N[C@@H]2Cc3cc(Cl)ccc3-n3c(nnc3[C@H]3CC[C@H](Oc4ccccn4)CC3)C2)COC1
-0.30

Input COC1Cc2cc(Cl)ccc2-n2c(nnc2N2CCC(Oc3ccccn3)CC2)C1 (stereo not shown)
-0.52

The reported measurements were obtained from patent US11298363B2.
